The origin of these recorded values is patent US20240067668A1.

- systemTested: EGFR Del19/T790M/C797S (Homo sapiens, UniProt P00533, C797S/T790M, form not given)
- Sequence (P00533 25-1210 T790M/C797S, form open): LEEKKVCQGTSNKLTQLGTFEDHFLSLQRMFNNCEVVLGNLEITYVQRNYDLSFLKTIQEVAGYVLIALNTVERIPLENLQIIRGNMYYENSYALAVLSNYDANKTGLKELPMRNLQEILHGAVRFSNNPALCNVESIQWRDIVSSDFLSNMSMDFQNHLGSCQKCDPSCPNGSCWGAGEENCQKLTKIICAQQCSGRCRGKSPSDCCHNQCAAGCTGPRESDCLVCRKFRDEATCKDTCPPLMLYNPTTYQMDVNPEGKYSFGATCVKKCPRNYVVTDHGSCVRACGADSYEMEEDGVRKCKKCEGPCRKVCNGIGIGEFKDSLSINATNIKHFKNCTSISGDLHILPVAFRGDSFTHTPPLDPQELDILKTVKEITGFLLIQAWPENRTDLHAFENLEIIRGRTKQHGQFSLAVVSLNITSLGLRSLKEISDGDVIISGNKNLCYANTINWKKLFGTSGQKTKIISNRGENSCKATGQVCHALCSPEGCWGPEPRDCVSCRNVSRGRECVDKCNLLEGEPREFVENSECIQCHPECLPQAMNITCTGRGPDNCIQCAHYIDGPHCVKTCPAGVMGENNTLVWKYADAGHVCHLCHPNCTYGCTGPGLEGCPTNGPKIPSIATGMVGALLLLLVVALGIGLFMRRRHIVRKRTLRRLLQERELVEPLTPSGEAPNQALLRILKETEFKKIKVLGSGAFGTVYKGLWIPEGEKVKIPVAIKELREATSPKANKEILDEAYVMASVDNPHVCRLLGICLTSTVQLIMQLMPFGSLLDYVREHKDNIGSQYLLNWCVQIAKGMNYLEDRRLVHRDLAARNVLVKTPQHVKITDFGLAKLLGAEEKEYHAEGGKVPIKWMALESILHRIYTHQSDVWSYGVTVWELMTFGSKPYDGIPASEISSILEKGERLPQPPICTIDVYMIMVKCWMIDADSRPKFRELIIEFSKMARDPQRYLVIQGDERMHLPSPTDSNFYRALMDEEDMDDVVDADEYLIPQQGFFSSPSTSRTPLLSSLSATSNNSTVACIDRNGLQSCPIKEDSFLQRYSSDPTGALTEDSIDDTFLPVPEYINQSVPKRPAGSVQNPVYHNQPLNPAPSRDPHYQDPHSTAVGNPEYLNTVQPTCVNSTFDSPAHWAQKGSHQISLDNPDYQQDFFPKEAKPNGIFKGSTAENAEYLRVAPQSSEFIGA
- protocol: Enzyme IC50, EGFR Del19/T790M/C797S
- Format: biochemical
measuredQuantity: IC50

Examples with their reported IC50 follow.
{"molecularString": "CCN1CCN(c2cc(OC)c(Nc3nc(Nc4ccc5nccnc5c4P(C)(C)=O)c4cc[nH]c4n3)cc2-c2cnn(C(C)C)c2)CC1", "systemTested": "EGFR Del19/T790M/C797S (Homo sapiens, UniProt P00533, C797S/T790M, form not given)", "IC50": "≤ 0.05 µM"}
{"molecularString": "C=CC(=O)Nc1cc(Nc2nc(Nc3ccc4nccnc4c3P(C)(C)=O)c3cc[nH]c3n2)c(OC)cc1N1CCN(C)CC1", "systemTested": "EGFR Del19/T790M/C797S (Homo sapiens, UniProt P00533, C797S/T790M, form not given)", "IC50": "≤ 0.05 µM"}
{"molecularString": "COc1cc(N2CCOCC2)c(-c2cnn(C)c2)cc1Nc1nc(Nc2ccc3nccnc3c2P(C)(C)=O)c2cc[nH]c2n1", "systemTested": "EGFR Del19/T790M/C797S (Homo sapiens, UniProt P00533, C797S/T790M, form not given)", "IC50": "≤ 0.05 µM"}
{"molecularString": "Cn1cc(-c2cc(Nc3nc(Nc4ccc5nccnc5c4P(C)(C)=O)c4cc[nH]c4n3)c(OCC(F)(F)F)cc2N2CCOCC2)cn1", "systemTested": "EGFR Del19/T790M/C797S (Homo sapiens, UniProt P00533, C797S/T790M, form not given)", "IC50": "≤ 0.05 µM"}
{"molecularString": "COc1cc(N2CCC3(CCN(C(=O)C4(F)CC4)CC3)CC2)c(-c2cnn(C)c2)cc1Nc1nc(Nc2ccc3nccnc3c2P(C)(C)=O)c2cc[nH]c2n1", "systemTested": "EGFR Del19/T790M/C797S (Homo sapiens, UniProt P00533, C797S/T790M, form not given)", "IC50": "> 0.1 µM"}
{"molecularString": "COc1cc(N2CCN(C)CC2)c(-c2cnn(C(F)F)c2)cc1Nc1nc(Nc2ccc3nccnc3c2P(C)(C)=O)c2cc[nH]c2n1", "systemTested": "EGFR Del19/T790M/C797S (Homo sapiens, UniProt P00533, C797S/T790M, form not given)", "IC50": "≤ 0.05 µM"}

## Task Request the reported IC50 associated with `Cn1cc(-c2ccc(OCC(F)(F)F)c(Nc3nc(Nc4ccc5nccnc5c4P(C)(C)=O)c4cc[nH]c4n3)c2)cn1`
## Result 0.05 to 0.1 µM
